tested on: Eimeria tenella; assay: In vitro inhibitory activity against Eimeria tenella in embryonic chick liver cells.; format: functional
// values below are reported MIC
quantity.kind: MIC

{"compound": "C=CCSc1ncnc2c1cnn2C1O[C@H](CO)[C@@H](O)[C@H]1O (some centres not stated)", "quantity.kind": "MIC", "reported.measurement": "0.019 µg/mL"}
{"compound": "C/C=C/CSc1ncnc2c1cnn2C1O[C@H](CO)[C@@H](O)[C@H]1O (some centres not stated)", "quantity.kind": "MIC", "reported.measurement": "0.019 µg/mL"}
{"compound": "CC(=O)OC[C@H]1O[C@@H](n2ncc3c(SC/C=C/c4ccccc4)ncnc32)[C@H](OC(C)=O)[C@@H]1OC(C)=O", "quantity.kind": "MIC", "reported.measurement": "1.25 µg/mL"}
{"compound": "OC[C@H]1OC(n2ncc3c(S)ncnc32)[C@H](O)[C@@H]1O (some centres not stated)", "quantity.kind": "MIC", "reported.measurement": "0.31 µg/mL"}
{"compound": "COc1ccccc1/C=C/CSc1ncnc2c1cnn2C1O[C@H](CO)[C@@H](O)[C@H]1O (some centres not stated)", "quantity.kind": "MIC", "reported.measurement": "1.25 µg/mL"}
{"compound": "OC[C@H]1OC(n2ncc3c(SC/C=C/c4cccc(Br)c4)ncnc32)[C@H](O)[C@@H]1O (some centres not stated)", "quantity.kind": "MIC", "reported.measurement": "5 µg/mL"}
{"compound": "OC[C@H]1OC(n2ncc3c(SC/C=C/c4cccc(C(F)(F)F)c4)ncnc32)[C@H](O)[C@@H]1O (some centres not stated)", "quantity.kind": "MIC", "reported.measurement": "5 µg/mL"}
